// provenance: patent US20100003217A1

Test system: human primary hepatocytes
Test summary: Metabolic disposition of [^14C]-Compound 1 and [^14C]-2′-C-methyl guanosine in human primary hepatocytes (incubation medium, cellular extracts, nucleotide levels)
Format: in vitro ADME
Measurement conditions: human hepatocytes (Hu775), 1 μM [^14C]-Compound 1, 1 h
Measured property: metabolites observed in cellular extracts (% of total radioactivity) (%)

• C[C@@]1(O)[C@H](O)[C@@H](COP(=O)(O)OP(=O)(O)OP(=O)(O)O)O[C@H]1n1cnc2c(=O)[nH]c(N)nc21 = 48.5

A. C[C@@]1(O)[C@H](O)[C@@H](COP(=O)(O)OP(=O)(O)O)O[C@H]1n1cnc2c(=O)[nH]c(N)nc21
B. C[C@@]1(O)[C@H](O)[C@@H](COP(=O)(O)NCc2ccccc2)O[C@H]1n1cnc2c(=O)[nH]c(N)nc21
In: Higher metabolites observed in cellular extracts (% of total radioactivity) between A and B ? Kindly give the label for the entry you pick.
Out: A
